molecular target: DRB3*02:02 (Homo sapiens, UniProt P01903+P79483, A212P/D57E/F66Y/L67A/R103Q/R218S/R40L/S89Y/T80R/V86D/Y55F/Y59H); assay: biochemical
Sequence (P01903 26-254 limits assumed): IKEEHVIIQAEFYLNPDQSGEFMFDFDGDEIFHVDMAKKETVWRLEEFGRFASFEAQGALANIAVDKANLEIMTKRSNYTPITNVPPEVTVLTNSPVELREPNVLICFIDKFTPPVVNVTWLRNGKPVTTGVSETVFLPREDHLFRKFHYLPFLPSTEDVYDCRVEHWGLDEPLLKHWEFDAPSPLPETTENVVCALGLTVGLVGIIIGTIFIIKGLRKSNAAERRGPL
Sequence (P79483 30-266 R40L/Y55F/D57E/Y59H/F66Y/L67A/T80R/V86D/S89Y/R103Q/A212P/R218S limits assumed): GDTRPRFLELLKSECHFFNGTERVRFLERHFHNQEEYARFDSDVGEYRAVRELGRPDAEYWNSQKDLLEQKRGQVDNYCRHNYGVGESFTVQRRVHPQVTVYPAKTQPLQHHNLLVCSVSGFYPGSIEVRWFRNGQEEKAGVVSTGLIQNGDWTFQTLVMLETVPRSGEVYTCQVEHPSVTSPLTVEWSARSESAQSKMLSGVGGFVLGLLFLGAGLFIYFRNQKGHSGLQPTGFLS
Where a SMILES comes first, the peptide text is derived from it.
Lab note - cut at 6 µM for IC50: yes (1) if strictly below, no (0) if not.

As a guide, the following entries are already answered.
COMPOUND	CATEGORY LABEL
CC[C@H](C)[C@H](NC(=O)[C@H](CCC(=O)O)NC(=O)[C@@H](N)CCCCN)C(=O)N[C@H](C(=O)N[C@H](C(=O)N[C@@H](C)C(=O)N[C@H](C(=O)N[C@@H](CO)C(=O)N[C@@H](CCCNC(=N)N)C(=O)N[C@H](C(=O)N[C@@H](CC(C)C)C(=O)N[C@@H](CO)C(=O)N[C@@H](Cc1ccc(O)cc1)C(=O)N[C@@H](Cc1ccc(O)cc1)C(=O)N[C@@H](CCCCN)C(=O)O)[C@@H](C)O)[C@@H](C)O)C(C)C)[C@@H](C)O [Mem_34] (H-KEITVATSRTLSYYK-OH)	no (0)
CC(C)C[C@H](NC(=O)[C@H](Cc1ccc(O)cc1)NC(=O)[C@H](Cc1ccc(O)cc1)NC(=O)[C@H](Cc1ccccc1)NC(=O)[C@H](Cc1ccc(O)cc1)NC(=O)[C@H](Cc1c[nH]c2ccccc12)NC(=O)[C@H](CCCNC(=N)N)NC(=O)[C@@H]1CCCN1)C(=O)NCC(=O)N[C@H](C(=O)NCC(=O)N1CCC[C@H]1C(=O)N[C@@H](CCC(=O)O)C(=O)N[C@@H](C)C(=O)NCC(=O)O)[C@@H](C)O [Ncl_22] (H-PRWYFYYLGTGPEAG-OH)	yes (1)
CC[C@H](C)[C@H](NC(=O)[C@H](CCCNC(=N)N)NC(=O)[C@H](CCCNC(=N)N)NC(=O)[C@@H](NC(=O)[C@H](C)NC(=O)[C@H](CCCNC(=N)N)NC(=O)[C@H](CCCNC(=N)N)NC(=O)[C@H](Cc1ccc(O)cc1)NC(=O)[C@@H](N)Cc1ccc(O)cc1)[C@@H](C)O)C(=O)N[C@@H](CCCNC(=N)N)C(=O)NCC(=O)NCC(=O)N[C@@H](CC(=O)O)C(=O)NCC(=O)N[C@@H](CCCCN)C(=O)O [Ncl_P18] (H-YYRRATRRIRGGDGK-OH)	no (0)
CSCC[C@H](NC(=O)[C@H](CCCCN)NC(=O)[C@H](CO)NC(=O)[C@H](CCC(=O)O)NC(=O)[C@H](CC(C)C)NC(=O)[C@H](CCC(N)=O)NC(=O)[C@H](CC(N)=O)NC(=O)[C@H](CC(C)C)NC(=O)[C@H](CCCNC(=N)N)NC(=O)[C@H](CC(=O)O)NC(=O)[C@H](CC(C)C)NC(=O)[C@H](CC(C)C)NC(=O)[C@H](CC(C)C)NC(=O)[C@@H](N)CC(C)C)C(=O)N[C@@H](CO)C(=O)O [Ncl_45] (H-LLLLDRLNQLESKMS-OH)	no (0)

Ask: Hi there! Is IC50 for CC(C)C[C@H](NC(=O)[C@H](CCC(N)=O)NC(=O)[C@H](CC(N)=O)NC(=O)[C@H](CC(C)C)NC(=O)[C@H](CCCNC(=N)N)NC(=O)[C@H](CC(=O)O)NC(=O)[C@H](CC(C)C)NC(=O)[C@H](CC(C)C)NC(=O)[C@H](CC(C)C)NC(=O)[C@H](CC(C)C)NC(=O)[C@H](C)NC(=O)[C@H](CC(C)C)NC(=O)[C@H](C)NC(=O)[C@H](C)NC(=O)[C@@H](N)CC(=O)O)C(=O)O [Ncl_44] (H-DAALALLLLDRLNQL-OH) below 6 µM, do you know?
Result: no (0)

Ask: Determine whether this compound shows IC50 lower than 6 µM (ties excluded): CC[C@H](C)[C@H](NC(=O)[C@H](CCCNC(=N)N)NC(=O)[C@H](CC(C)C)NC(=O)[C@H](Cc1c[nH]cn1)NC(=O)CNC(=O)[C@@H](N)CCCNC(=N)N)C(=O)N[C@@H](C)C(=O)NCC(=O)N[C@@H](Cc1c[nH]cn1)C(=O)N[C@@H](Cc1c[nH]cn1)C(=O)N[C@@H](CC(C)C)C(=O)NCC(=O)N[C@@H](CCCNC(=N)N)C(=O)N[C@@H](CS)C(=O)N[C@@H](CC(=O)O)C(=O)O [Mem_30] (H-RGHLRIAGHHLGRCD-OH)
Result: yes (1)

Ask: # check: IC50 < 6 µM for CC[C@H](C)[C@H](NC(=O)CNC(=O)[C@H](CC(=O)O)NC(=O)[C@H](CCCCN)NC(=O)[C@H](CC(N)=O)NC(=O)[C@H](C)NC(=O)CNC(=O)[C@H](Cc1ccc(O)cc1)NC(=O)[C@@H]1CCCN1C(=O)[C@@H](N)CC(C)C)C(=O)N[C@H](C(=O)N[C@@H](Cc1c[nH]c2ccccc12)C(=O)N[C@H](C(=O)N[C@@H](C)C(=O)N[C@H](C(=O)O)[C@@H](C)O)C(C)C)[C@@H](C)CC [Ncl_25] (H-LPYGANKDGIIWVAT-OH)
Result: no (0)
